Reference for the values: ChEMBL document CHEMBL3988442

Tested on: Wolbachia pipientis
Experiment: Anti-Wolbachia Cell-Based Screen
Assay type: functional
Design: scale not given: in the data most compounds retested in dose-response had high values
Conditions: 5 µM
Screen size: about 48,000 compounds; about 13,000 (27%) showed an effect of 50% or more. This is one part of the list.
Quick reference: Percent Effect of the listed items.
PROPERTY_MEASURED: Percent Effect (%)

> print(dat)
                                    molecule        target.system  property.measured  assay.value
 1  Cn1ccnc1C(=O)N1CCC2(CCCN2CC2CC2)CC1.O=C(O)C(F)(F)F  Wolbachia pipientis     Percent Effect        5.734
 2  CCN(CC)Cc1ccc(C(=O)N2CCCCC2Cn2cccn2)o1 (stereo unspecified)  Wolbachia pipientis     Percent Effect       -4.824
 3  COc1ccc(C(=O)NC2COc3ccccc3C2)cc1OCC(=O)O (stereo unspecified)  Wolbachia pipientis     Percent Effect       -8.358
 4  CCC(CN1CCCC1)n1cncc1-c1cnn(Cc2ccccc2)c1.Cl (stereo unspecified)  Wolbachia pipientis     Percent Effect          116
 5      Cc1cccc(C)c1CCNC(=O)N1CCCC2(C1)OCCO2  Wolbachia pipientis     Percent Effect     -0.05309
 6  CCCn1cnc2c1CN(C(=O)c1ccc(F)cc1)[C@H](C(=O)OC)C2  Wolbachia pipientis     Percent Effect        6.422
 7  O=S(=O)(N1CCCC1)N1CC(c2ccnc(Nc3ccccn3)n2)C1  Wolbachia pipientis     Percent Effect        105.1
 8            Cc1nc(-c2cccc(C(=O)O)c2)c[nH]1  Wolbachia pipientis     Percent Effect        12.51
 9  Cn1cc(CN2CCn3cc(CNC(=O)CC4CC4)nc3C2)cn1.O=C(O)C(F)(F)F  Wolbachia pipientis     Percent Effect       -2.745
10  CN(C)S(=O)(=O)N1CCC(c2ccnc(Nc3ccccn3)n2)C1 (stereo unspecified)  Wolbachia pipientis     Percent Effect        92.82
11  CC(C)(C)NCC(=O)N1CCCC(n2ccnc2)C1 (stereo unspecified)  Wolbachia pipientis     Percent Effect       -1.533
12  CC(=O)N1CCC2(CC1)COCCN2CCN(C)C.O=C(O)C(F)(F)F.O=C(O)C(F)(F)F  Wolbachia pipientis     Percent Effect        6.129
13     Cc1ccc(Nc2nccc(C3CN(CC(N)=O)C3)n2)nc1  Wolbachia pipientis     Percent Effect       -11.37
14  CN(C)S(=O)(=O)N1CCC2(CC1)CC(Oc1ccccn1)CO2.O=C(O)C(F)(F)F (stereo unspecified)  Wolbachia pipientis     Percent Effect       -11.89
15        CCc1nnsc1C(=O)N1CCCN(Cc2ccccc2)CC1  Wolbachia pipientis     Percent Effect       -10.59
16   COCCN1C[C@@H](C(=O)O)[C@H](c2ccccc2C)C1  Wolbachia pipientis     Percent Effect       -9.465
17        CC(C)(CN)NS(=O)(=O)c1c(F)cccc1F.Cl  Wolbachia pipientis     Percent Effect       -5.219
18  CC(=O)NCc1ccc(C(=O)N2CCCC2c2cnn(C)c2)o1 (stereo unspecified)  Wolbachia pipientis     Percent Effect        4.332
19  Cc1oncc1C(=O)N[C@@H]1CN(c2ncccn2)C[C@@H]2CCCO[C@@H]21.O=C(O)C(F)(F)F  Wolbachia pipientis     Percent Effect       -3.566
20  O=C(CCOCC(F)(F)F)N1CCCC(n2ccnc2)C1 (stereo unspecified)  Wolbachia pipientis     Percent Effect        105.8
21  O=C1NCC(C(=O)Nc2ncc(Cc3ccccc3F)s2)N1 (stereo unspecified)  Wolbachia pipientis     Percent Effect        80.55
22                  O=C(O)c1ccc(-c2cscn2)cc1  Wolbachia pipientis     Percent Effect       -4.979
23  CC(=O)NCc1ccc(C(=O)N2CCCC2c2cnn(C)c2)s1 (stereo unspecified)  Wolbachia pipientis     Percent Effect        110.6
24    CNc1nc(C(=O)NCc2cccnc2N(C)C2CCCCC2)cs1  Wolbachia pipientis     Percent Effect        1.168
25         c1ncc(-c2cn(CCSc3cnn[nH]3)nn2)cn1  Wolbachia pipientis     Percent Effect       -12.65
26                c1ccc(CSc2nnc(C3CC3)s2)nc1  Wolbachia pipientis     Percent Effect       -7.286
27  O=C(Nc1ccc(OCc2cccc(F)c2)c(F)c1)C1COCCO1 (stereo unspecified)  Wolbachia pipientis     Percent Effect       -24.38
28  O=S(=O)(NC1CCCN(c2ncccn2)C1)N1CCCCCC1 (stereo unspecified)  Wolbachia pipientis     Percent Effect       -17.91
29                      CCOCCNCC1CCN(CCO)CC1  Wolbachia pipientis     Percent Effect       -14.57
30  CN(C(=O)OC(C)(C)C)C1CCN(C(=O)c2cc(Cl)c[nH]2)C1 (stereo unspecified)  Wolbachia pipientis     Percent Effect        3.471
31  Cc1ccccc1Cc1cnc(NC(=O)C2CNC(=O)N2)s1 (stereo unspecified)  Wolbachia pipientis     Percent Effect        1.413
32  CCN1CCOCC12CCN(C(=O)Cc1cccs1)CC2.O=C(O)C(F)(F)F  Wolbachia pipientis     Percent Effect       0.8444
33  CN(C)[C@@H]1CN(Cc2ccoc2)C[C@@H]2CCCO[C@@H]21.O=C(O)C(F)(F)F.O=C(O)C(F)(F)F  Wolbachia pipientis     Percent Effect       -4.757
34     CC(=O)Nc1ncc(S(=O)(=O)Nc2ccc(F)cc2)s1  Wolbachia pipientis     Percent Effect         1.75
35     CS(=O)(=O)N1CC(c2ccnc(Nc3ccccn3)n2)C1  Wolbachia pipientis     Percent Effect        102.3
36  CC(C)c1noc(CCC(=O)N2CCCC(n3ccnc3)C2)n1 (stereo unspecified)  Wolbachia pipientis     Percent Effect        13.44
37        CCNc1ccnc(NC2CCN(S(C)(=O)=O)CC2)n1  Wolbachia pipientis     Percent Effect        1.929
38  CCN1CCN(c2ccc(F)cc2C(C)NCc2noc(C)n2)CC1 (stereo unspecified)  Wolbachia pipientis     Percent Effect        6.672
39           COCC(=O)Nc1cc(Br)cnc1OCC(F)(F)F  Wolbachia pipientis     Percent Effect       -8.259
40  CN(C)CCN1CCOCC12CCN(C(=O)C1CC1)CC2.O=C(O)C(F)(F)F.O=C(O)C(F)(F)F  Wolbachia pipientis     Percent Effect        105.8
41  Cc1cccc(CNC(CN2CCN(C)CC2)c2ccccc2)c1 (stereo unspecified)  Wolbachia pipientis     Percent Effect        16.68
42      Cc1nnsc1C(=O)NCc1cccnc1N(C)Cc1ccccc1  Wolbachia pipientis     Percent Effect       -7.662
43     O=C(Nc1ccc(N2CCCCC2)nc1)N1CCc2sccc2C1  Wolbachia pipientis     Percent Effect        2.777
44  CCN1CCOCC12CCN(C(=O)C1CCC1)CC2.O=C(O)C(F)(F)F  Wolbachia pipientis     Percent Effect        107.9
45     Cc1ccsc1C(=O)NCc1cccnc1N(C)CCc1ccccn1  Wolbachia pipientis     Percent Effect       -9.716
46  CN1CCOC2(CCCN(C(=O)C3CCCCC3)C2)C1.O=C(O)C(F)(F)F (stereo unspecified)  Wolbachia pipientis     Percent Effect       -15.05
